Test: Particle size and polydispersity index of nanoparticle compositions (Zetasizer Nano ZS)
Format: physicochemical
Settings: Table 1A
Method: A Zetasizer Nano ZS (Malvern Instruments Ltd, Malvern, Worcestershire, UK) can be used to determine the particle size, the polydispersity index (PDI) and the zeta potential of the nanoparticle compositions in 1×PBS in determining particle size and 15 mM PBS in determining zeta potential.
Answer each item with its documented PDI.
# respond with the number and nothing more

Input: Bench note: what PDI did `CCCCCCCCCOC(=O)CCCCCCCN(CCCCCCCC(=O)OC(CCCCCCCC)CCCCCCCC)CCCNc1c(N(C)C)c(=O)c1=O` show?
Output: 0.17

Input: Follow-up entry: `CCCCCCCCCOC(=O)CCCCCCCN(CCCCCCCC(=O)OC(CCCCCCCC)CCCCCCCC)CCCn1cc(CO)nn1`
Output: 0.21

Input: Here is the next compound: `CCCCCCCCCOC(=O)CCCCCCCN(CCCCCCCC(=O)OC(CCCCCCCC)CCCCCCCC)CCN(C)C`
Output: 0.15

Input: Moving on to `CCCCCCCCC(CCCCCCCC)OC(=O)CCCCCCCN(CCO)CCCCCCCC(=O)N(C)CCCCCCCC`
Output: 0.140

Input: What about this compound? `CCCCCCCCCOC(=O)CCCCCCCN(CCCCCCCC(=O)OC(CCCCCCCC)CCCCCCCC)C(CO)CO`
Output: 0.11

Input: Thanks! And `CCCCCCCCC(CCCCCCCC)OC(=O)CCCCCCCN(CCO)CCCC(=O)OCCCCCC` ?
Output: 0.13

Input: Again, but for `CCCCCCCCC(CCCCCCCC)OC(=O)CCCCCCCN(CCO)CCCCCCCC(=O)OC(C)(C)C`
Output: 0.240

====

assay: Particle size and polydispersity index of nanoparticle compositions (Zetasizer Nano ZS); type: physicochemical; conditions: Table 1D; for subcutaneous administration; # formulated with hEPO mRNA
Field: PDI. Provide a value for each of the compounds that follow.
Please state the value as a number alone, without comment.

Input: What does the record list as PDI for CCCCCCCCCC(=O)OC(C)CCCCCCN(CCO)CCCCCCCC(=O)OC(CCCCCCCC)CCCCCCCC (centres unmarked) [Compound 98] ?
Output: 0.14

Input: Quick one: CCCCCCCCCOC(=O)CCCCCCCN(CCO)CCCCCCCC(=O)OC(CCCCCCCC)CCCCCCCC [Compound 18]
Output: 0.11

Input: Please answer likewise for CCCCCCCCC(CC)OC(=O)CCCCCCCN(CCO)CCCCCCCC(=O)OC(CCCCCCCC)CCCCCCCC (centres unmarked) [Compound 49]
Output: 0.09

Input: Repeat for the following compound: CCCC/C=C\CCC(CC/C=C\CCCC)OC(=O)CCCCCCCN(CCO)CCCCCCCC(=O)OCCCCCCCCC [Compound 60]
Output: 0.13

Input: Same read-out for CCCCCCCCCC(=O)OC(C)CCCCCCN(CCO)CCCCCCCOC(=O)C(CCCCCCCC)CCCCCCCC (centres unmarked) [Compound 165] ?
Output: 0.14

Input: Follow-up item: CCCCCCCCCOC(=O)CCCCCCCN(CCCCCCCC(=O)OC(CCCCCCCC)CCCCCCCC)CCCN/C(=N/C#N)N(C)C [Compound 168]
Output: 0.07

Input: Would you mind doing CCCCCCCCCC(=O)OCCCCCCCN(CCO)CCCCCCCC(=O)OC(CCCCCCCC)CCCCCCCC [Compound 96] as well?
Output: 0.14

Input: Param item: CCCCCCCCCCCOC(=O)CCCCCN(CCO)CCCCCCCC(=O)OC(CCCCCCCC)CCCCCCCC [Compound 25]
Output: 0.13

Input: Follow-up item: CCCCCCCCCOC(=O)C(C)CCCCCCN(CCO)CCCCCCCC(=O)OC(CCCCCCCC)CCCCCCCC (centres unmarked) [Compound 164]
Output: 0.08

Input: Also need CCCCCCCCCOC(=O)CCCCCCCN(CCO)CCCCCCCOC(=O)C(CCCCCCCC)CCCCCCCC [Compound 30] , thanks.
Output: 0.11

Input: Please do the same for CCCCCCCCCOC(=O)C(C)CCCCCCN(CCO)CCCCCCCOC(=O)C(CCCCCCCC)CCCCCCCC (centres unmarked) [Compound 163] as well.
Output: 0.10

Input: One more compound: CCCCCCCCCOC(=O)CCCCCCCN(CCCCCCCC(=O)OC(CCCCCCCC)CCCCCCCC)CCCNC(=N)N [Compound 207]
Output: 0.22

Input: How about this compound: CCCCC/C=C\C/C=C\CCCCCCCCC(CCCCCCCC/C=C\C/C=C\CCCCC)OC(=O)CCCN(C)C [MC3, DLin-MC3-DMA, reference compound]
Output: 0.15

Input: CCCCCCCCC(C)OC(=O)CCCCCCCN(CCO)CCCCCCCC(=O)OC(CCCCCCCC)CCCCCCCC (centres unmarked) [Compound 48] ?
Output: 0.09

Input: How about CCCCCCCCCOC(=O)CCCCCCCN(CCCCCCCC(=O)OC(CCCCCCCC)CCCCCCCC)CCCN/C(=N/S(C)(=O)=O)N(C)C [Compound 233] ?
Output: 0.13

Input: Please give the result for CCCCCCCCCOC(=O)CCCCCCCN(CCCCCCCC(=O)OC(CCCCCCCC)CCCCCCCC)CCCNC(=S)N(C)C [Compound 111] too.
Output: 0.12

Input: Next compound up: CCCCCCCCCC(=O)OCCCCCCCN(CCO)CCCCCCCOC(=O)C(CCCCCCCC)CCCCCCCC [Compound 151]
Output: 0.13
